# System: ATP;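 further: ATP exposure 15 min at 22 °C before imaging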
# EXPERIMENT: switch fluorescence ratio, 500 uM ATP over buffer (Cy3 cluster intensity, sum of 5 cycles each) (fold (ratio)); higher = stronger signal-on switching upon ATP binding; sequences stand for … in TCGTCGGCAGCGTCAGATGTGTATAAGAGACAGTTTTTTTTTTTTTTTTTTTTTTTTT…TC
# CONDITION_LABEL: aptamer strand: ATP DNA aptamer (quencher-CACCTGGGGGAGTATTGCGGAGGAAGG + anchor), 100 nM annealed; ATP concentration: 500 uM
PROPERTY_MEASURED: switch fluorescence ratio

>>> print(df.to_string())
    sequence_string  study_target  endpoint_result
 0       TGGGTCCGCG           ATP             1.12
 1       TTTTCCGGTT           ATP             1.23
 2       TTGTTCCAAT           ATP            0.989
 3       GGGAAAGCTG           ATP            0.956
 4       ATTTATTTGT           ATP            0.986
 5       ATTGTATGGA           ATP                1
 6       AGGGCAAGAG           ATP             1.38
 7       TTTTTCTTGT           ATP             1.01
 8       TGTTTCTTGA           ATP             1.01
 9       TAGTAGTGTG           ATP            0.962
10       GTCTCAAAGA           ATP             1.02
11       TCTATTGGGA           ATP            0.981
12       TCAAAATATT           ATP             1.01
13       TAGTGGGGGT           ATP             1.01
14       AGGGCGCGGA           ATP             1.05
15       GCTTATTATT           ATP             1.02
16       CCAATTTTTA           ATP             1.01
17       GCAGGAATTT           ATP                1
18       GTTATAGCTT           ATP             1.02
19       CGGTTAATTC           ATP             1.01

====

# Tested on: ATP;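 further: ATP exposure 15 min at 22 °C before imaging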
# EXPERIMENT: switch fluorescence ratio, 500 uM ATP over buffer (Cy3 cluster intensity, sum of 5 cycles each) (fold (ratio)); higher = stronger signal-on switching upon ATP binding; sequences stand for … in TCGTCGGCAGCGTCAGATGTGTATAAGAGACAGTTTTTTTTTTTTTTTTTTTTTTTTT…TC
# CONDITION_LABEL: aptamer strand: ATP DNA aptamer (quencher-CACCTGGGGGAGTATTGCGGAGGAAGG + anchor), 100 nM annealed; ATP concentration: 500 uM
# switch fluorescence ratio per record follows
PROPERTY_MEASURED: switch fluorescence ratio

    sequence_string  study_target          property_measured  endpoint_result
 0       CATTGAATAT           ATP  switch fluorescence ratio            0.996
 1       ATGTGGATGG           ATP  switch fluorescence ratio            0.976
 2        TTTTTTATT           ATP  switch fluorescence ratio            0.963
 3       AATGCTGTTG           ATP  switch fluorescence ratio            0.991
 4       GTGTAACGGG           ATP  switch fluorescence ratio            0.995
 5       ATATTTGGGC           ATP  switch fluorescence ratio            0.975
 6       GGGGATGGTC           ATP  switch fluorescence ratio            0.962
 7       CGATTTAGCT           ATP  switch fluorescence ratio            0.988
 8       TTGTAAGGGG           ATP  switch fluorescence ratio             1.01
 9       TTGACGTAAA           ATP  switch fluorescence ratio             1.61
10       ATTATCAGTT           ATP  switch fluorescence ratio            0.987
11       GTTTTAGCTG           ATP  switch fluorescence ratio            0.986
12       ACGTGTGATG           ATP  switch fluorescence ratio             0.99
13       CGGCTCCCGC           ATP  switch fluorescence ratio             1.05
14       GCGACGTTGC           ATP  switch fluorescence ratio            0.999
15       GATGAGGGGT           ATP  switch fluorescence ratio            0.986
16       GGGGTTTAAT           ATP  switch fluorescence ratio                1
17       AACAACATAG           ATP  switch fluorescence ratio             1.02
18       GGGTTGCATG           ATP  switch fluorescence ratio            0.976
19       TGCTATATGG           ATP  switch fluorescence ratio            0.994
20       CGTGTCTTAA           ATP  switch fluorescence ratio            0.974
21       GGATTTTTTC           ATP  switch fluorescence ratio             1.02
22       ATTTGGACGT           ATP  switch fluorescence ratio             1.02
23       AAGAGGGGAA           ATP  switch fluorescence ratio            0.988
24       CGCTAGGGTG           ATP  switch fluorescence ratio             1.11
25       CGGGATGACA           ATP  switch fluorescence ratio            0.979
26       GTTTCCAACT           ATP  switch fluorescence ratio             1.01
27       TTTTGGAGTT           ATP  switch fluorescence ratio            0.998
28       ATGGATGATG           ATP  switch fluorescence ratio            0.991
29        AGGGGGGGA           ATP  switch fluorescence ratio            0.982
30       CTTATTGTTT           ATP  switch fluorescence ratio            0.995
31       GTTAGTGGGC           ATP  switch fluorescence ratio            0.971
32        CAAGCGGTT           ATP  switch fluorescence ratio            0.963
33       TCGAAGGTTT           ATP  switch fluorescence ratio             1.01
34       GGGCACTCGC           ATP  switch fluorescence ratio            0.999
35       ATTACGGGAT           ATP  switch fluorescence ratio             1.01
36       TTTTGGCTTG           ATP  switch fluorescence ratio            0.988
37       TTTTTGATGT           ATP  switch fluorescence ratio            0.994
38       AACATAGTCA           ATP  switch fluorescence ratio             1.01
39       AAAATGCGTG           ATP  switch fluorescence ratio            0.966
40       CGTTGGGCAG           ATP  switch fluorescence ratio            0.953
41       AGAGGTAGGA           ATP  switch fluorescence ratio            0.979
42       ATGTGTAAAC           ATP  switch fluorescence ratio             1.01
43       TGGGCGAATG           ATP  switch fluorescence ratio            0.995
44       GAGTAGCATG           ATP  switch fluorescence ratio            0.993
45       TTAATGGGTG           ATP  switch fluorescence ratio             1.05
46       AGTGTAGGGA           ATP  switch fluorescence ratio             1.01
47       GCCCGGGCAT           ATP  switch fluorescence ratio            0.986
48       TTTATAAGGC           ATP  switch fluorescence ratio            0.983
49       GGAGCTCGGG           ATP  switch fluorescence ratio            0.975
50       AGTGGGGGAA           ATP  switch fluorescence ratio            0.985
51       AACAGTGTTT           ATP  switch fluorescence ratio            0.971
52       TGGCAACACC           ATP  switch fluorescence ratio             1.94
53       TTTCGATTGT           ATP  switch fluorescence ratio            0.988
54       GGGTTAAGGG           ATP  switch fluorescence ratio            0.984
55       GGGGGGCTAT           ATP  switch fluorescence ratio            0.976
56       TAGCCTTTTT           ATP  switch fluorescence ratio            0.955
57       ACTGTTGGCG           ATP  switch fluorescence ratio            0.965
58       GCCAGGGGGT           ATP  switch fluorescence ratio             1.08
59       TGTTCTAGGG           ATP  switch fluorescence ratio             1.01
60       AAGGAGTTGG           ATP  switch fluorescence ratio            0.989
61       TACATCATGG           ATP  switch fluorescence ratio             1.04
62       TCCATATGGT           ATP  switch fluorescence ratio            0.975
63       TTTTTTATGT           ATP  switch fluorescence ratio            0.995
64       GAATGGGTCG           ATP  switch fluorescence ratio            0.989
65       ATGGTACACC           ATP  switch fluorescence ratio             1.04
66       CAAGCGGACT           ATP  switch fluorescence ratio             1.06
67       TAAGGGGGCT           ATP  switch fluorescence ratio             1.01
68       GTTTTCACGT           ATP  switch fluorescence ratio             1.01
69       GTGAATCGGG           ATP  switch fluorescence ratio            0.973
70       TTTGAGGAGG           ATP  switch fluorescence ratio            0.988
71       GGAGCATTTG           ATP  switch fluorescence ratio             1.27
72       ATTTATGTAA           ATP  switch fluorescence ratio            0.987
73       TGAGTAGGGG           ATP  switch fluorescence ratio            0.994
74       TTATAAGTTT           ATP  switch fluorescence ratio             1.03
75       CATCTTCGCT           ATP  switch fluorescence ratio             1.02
76       ATCCTCTGCC           ATP  switch fluorescence ratio             3.16
77       TAACGCTTTT           ATP  switch fluorescence ratio                1
78       CTGTGTGTTA           ATP  switch fluorescence ratio            0.982
79       TGCATTCAGG           ATP  switch fluorescence ratio             1.02
80       TCAGGGTTGA           ATP  switch fluorescence ratio             1.03
81       ACGAGATGAC           ATP  switch fluorescence ratio             1.05
82       TGACAGTGAA           ATP  switch fluorescence ratio             1.01
83       GGGAACACGA           ATP  switch fluorescence ratio             1.01
84       ATTGATGGCC           ATP  switch fluorescence ratio            0.963
85       TAATTCGTTA           ATP  switch fluorescence ratio            0.992
